assay: Evaluation of storage stability of ink (40° C. for 3 months, insoluble matter and clogging); format: physicochemical; conditions: recording liquid stored at 40° C. for 3 months; insoluble matter and clogging
VALUE TYPE: (C) storage stability

# COMPOUND, VALUE TYPE, DATA VALUE
measured = [
    ("CC(C)(C)c1c(N=Nc2cc(C(=O)O)ccc2C(=O)O)c(O)n(CCn2c(=O)c3cc4c(=O)n(CCn5c(O)c(N=Nc6cc(C(=O)O)ccc6C(=O)O)c(C(C)(C)C)c(C#N)c5=O)c(=O)c4cc3c2=O)c(=O)c1C#N [Compound 336]", "(C) storage stability", "◯"),
    ("Cc1c(N=Nc2cc(C(=O)O)ccc2C(=O)O)c(O)n(CCCCCCNC(=O)c2cc(C(=O)NCCCCCCn3c(O)c(N=Nc4cc(C(=O)O)ccc4C(=O)O)c(C)c(C#N)c3=O)c(C(=O)NCCn3c(O)c(N=Nc4cc(C(=O)O)ccc4C(=O)O)c(C)c(C#N)c3=O)cc2C(=O)NCCCCCCn2c(O)c(N=Nc3cc(C(=O)O)ccc3C(=O)O)c(C)c(C#N)c2=O)c(=O)c1C#N [Compound 312]", "(C) storage stability", "Δ"),
    ("Cc1c(N=Nc2cc(C(=O)O)ccc2C(=O)O)c(O)[nH]c(=O)c1C#N [Compound No. 11]", "(C) storage stability", "◯"),
    ("C[N+](C)(C)C.C[N+](C)(C)C.Cc1c(N=Nc2cc(C(=O)[O-])ccc2C(=O)[O-])c(O)[nH]c(=O)c1C#N", "(C) storage stability", "ο"),
    ("CNC(=O)c1cc(C(=O)O)c(N=Nc2c(O)[nH]c(=O)c(C#N)c2C)cc1C(=O)O [compound 14]", "(C) storage stability", "◯"),
]

----------
assay: Evaluation of storage stability of ink (40° C. for 3 months, insoluble matter and clogging); format: physicochemical; details: recording liquid stored at 40° C. for 3 months; insoluble matter and clogging
VALUE TYPE: (C) storage stability

# COMPOUND, VALUE TYPE, DATA VALUE
measured = [
    ("CCc1c(N=Nc2cc(C(=O)O)ccc2C(=O)O)c(O)n(CCn2c(=O)c3cc4c(=O)n(CCn5c(O)c(N=Nc6cc(C(=O)O)ccc6C(=O)O)c(CC)c(C#N)c5=O)c(=O)c4cc3c2=O)c(=O)c1C#N [Compound 335]", "(C) storage stability", "◯"),
    ("CCc1c(N=Nc2cc(C(=O)O)ccc2C(=O)O)c(O)n(CCNc2nc(Cl)nc(NCCn3c(O)c(N=Nc4cc(C(=O)O)ccc4C(=O)O)c(CC)c(C#N)c3=O)n2)c(=O)c1C#N [Compound 251]", "(C) storage stability", "Δ"),
    ("Cc1c(N=Nc2cc(C(=O)O)ccc2C(=O)O)c(O)n(CCNc2nc(NCCn3c(O)c(N=Nc4cc(C(=O)O)ccc4C(=O)O)c(C)c(C#N)c3=O)nc(SCCC(=O)O)n2)c(=O)c1C#N [Compound 321]", "(C) storage stability", "Δ"),
]

----------
assay: Evaluation of light fastness-2 (OD value of printed portion after 400 hours xenon fadeometer); assay type: physicochemical; conditions: ink prepared as in Example 1 from the salt named in the row; OD value of printed portion after 400 hours xenon fadeometer

# COMPOUND, (A)-2 light fastness-2
records = [
    ("Cc1c(N=Nc2cc(C(=O)O)ccc2C(=O)O)c(O)n(CCCNc2nc(Cl)nc(NCCCn3c(O)c(N=Nc4cc(C(=O)O)ccc4C(=O)O)c(C)c(C#N)c3=O)n2)c(=O)c1C#N", "◯"),
    ("Cc1c(N=Nc2cc(C(=O)O)ccc2C(=O)O)c(O)n(CCNc2nc(NCCn3c(O)c(N=Nc4cc(C(=O)O)ccc4C(=O)O)c(C)c(C#N)c3=O)nc(NCCn3c(O)c(N=Nc4cc(C(=O)O)ccc4C(=O)O)c(C)c(C#N)c3=O)n2)c(=O)c1C#N", "◯"),
    ("Cc1c(N=Nc2cccc(C(=O)O)c2C(=O)O)c(O)n(Cc2ccc(C(=O)O)cc2)c(=O)c1C#N", "◯"),
    ("Cc1c(C(=O)O)ccc(C(=O)O)c1N=Nc1c(C)c(C#N)c(=O)n(CCCS(=O)(=O)O)c1O", "⊚"),
    ("Cc1c(C(=O)O)ccc(C(=O)O)c1N=Nc1c(C)c(C#N)c(=O)n(CC(O)CC(=O)O)c1O (centres unmarked)", "◯"),
    ("CCc1c(N=Nc2cc(C(=O)O)ccc2C(=O)O)c(O)n(CCNc2nc(Cl)nc(NCCn3c(O)c(N=Nc4cc(C(=O)O)ccc4C(=O)O)c(CC)c(C#N)c3=O)n2)c(=O)c1C#N", "⊚"),
    ("N#Cc1c(-c2ccccc2)c(N=Nc2cc(C(=O)O)ccc2C(=O)O)c(O)n(CCNC(=O)c2cc(C(=O)O)c(C(=O)NCCn3c(O)c(N=Nc4cc(C(=O)O)ccc4C(=O)O)c(-c4ccccc4)c(C#N)c3=O)cc2C(=O)O)c1=O", "⊚⊚"),
    ("Cc1c(N=Nc2cc(S(=O)(=O)O)c(C(=O)O)cc2C(=O)O)c(O)[nH]c(=O)c1C#N", "⊚"),
    ("CCc1c(N=Nc2cc(C(=O)O)ccc2C(=O)O)c(O)n(CCNC(=O)c2cc(C(=O)NCCn3c(O)c(N=Nc4cc(C(=O)O)ccc4C(=O)O)c(CC)c(C#N)c3=O)c(C(=O)O)cc2C(=O)O)c(=O)c1C#N", "⊚"),
    ("Cc1c(N=Nc2cc(C(=O)O)ccc2C(=O)O)c(O)n(CCNc2nc(Cl)nc(NCCn3c(O)c(N=Nc4cc(C(=O)O)ccc4C(=O)O)c(C)c(C(N)=O)c3=O)n2)c(=O)c1C(N)=O", "◯"),
    ("Cc1c(N=Nc2cccc(C(=O)O)c2C(=O)O)c(O)n(C(=O)O)c(=O)c1C#N", "Δ"),
    ("Cc1c(N=Nc2cc(C(=O)O)ccc2C(=O)O)c(O)n(CCNc2nc(O)nc(NCCn3c(O)c(N=Nc4cc(C(=O)O)ccc4C(=O)O)c(C)c(C#N)c3=O)n2)c(=O)c1C#N", "◯"),
    ("N#Cc1c(C(F)(F)F)c(N=Nc2cc(C(=O)O)ccc2C(=O)O)c(O)n(CCNc2nc(Cl)nc(NCCn3c(O)c(N=Nc4cc(C(=O)O)ccc4C(=O)O)c(C(F)(F)F)c(C#N)c3=O)n2)c1=O", "⊚"),
    ("Cc1c(N=Nc2c(C(=O)O)cccc2C(=O)O)c(O)[nH]c(=O)c1C#N", "⊚"),
    ("Cc1c(N=Nc2cc(C(=O)O)ccc2C(=O)O)c(O)n(-c2cc(S(=O)(=O)O)cc(S(=O)(=O)O)c2)c(=O)c1C#N", "◯"),
    ("Cc1c(N=Nc2cc(C(=O)O)ccc2C(=O)O)c(O)n(CCCCCCNC(=O)c2cc(C(=O)NCCCCCCn3c(O)c(N=Nc4cc(C(=O)O)ccc4C(=O)O)c(C)c(C#N)c3=O)c(C(=O)NCCn3c(O)c(N=Nc4cc(C(=O)O)ccc4C(=O)O)c(C)c(C#N)c3=O)cc2C(=O)NCCCCCCn2c(O)c(N=Nc3cc(C(=O)O)ccc3C(=O)O)c(C)c(C#N)c2=O)c(=O)c1C#N", "⊚"),
    ("Cc1c(N=Nc2c(C(=O)O)cccc2C(=O)O)c(O)n(C(O)CO)c(=O)c1C#N (centres unmarked)", "⊚"),
    ("Cc1c(N=Nc2cccc(C(=O)O)c2C(=O)O)c(O)n(CCCNc2nc(Cl)nc(NCCCn3c(O)c(N=Nc4cccc(C(=O)O)c4C(=O)O)c(C)c(C#N)c3=O)n2)c(=O)c1C#N", "◯"),
    ("Cc1c(N=Nc2cc(C(=O)O)ccc2C(=O)O)c(O)n(CCn2c(=O)c3cc4c(=O)n(CCn5c(O)c(N=Nc6cc(C(=O)O)ccc6C(=O)O)c(C)c(C#N)c5=O)c(=O)c4cc3c2=O)c(=O)c1C#N", "⊚"),
    ("Cc1c(N=Nc2cccc(C(=O)O)c2C(=O)O)c(O)n(CCNc2nc(NCCn3c(O)c(N=Nc4cccc(C(=O)O)c4C(=O)O)c(C)c(C#N)c3=O)nc(NCCn3c(O)c(N=Nc4cccc(C(=O)O)c4C(=O)O)c(C)c(C#N)c3=O)n2)c(=O)c1C#N", "◯"),
]

----------
experiment: Evaluation of storage stability of ink (40° C. for 3 months, insoluble matter and clogging); type: physicochemical; settings: recording liquid stored at 40° C. for 3 months; insoluble matter and clogging

# COMPOUND, (C) storage stability
measured = [
    ("Cc1c(N=Nc2cc(C(=O)O)ccc2C(=O)O)c(O)n(CCn2c(=O)c3cc4c(=O)n(CCn5c(O)c(N=Nc6cc(C(=O)O)ccc6C(=O)O)c(C)c(C#N)c5=O)c(=O)c4cc3c2=O)c(=O)c1C#N [Compound 342]", "◯"),
    ("Cc1c(N=Nc2cc(C(=O)O)ccc2C(=O)O)c(O)n(CCCCCCNc2nc(NCCCCCCn3c(O)c(N=Nc4cc(C(=O)O)ccc4C(=O)O)c(C)c(C#N)c3=O)nc(NCCCCCCn3c(O)c(N=Nc4cc(C(=O)O)ccc4C(=O)O)c(C)c(C#N)c3=O)n2)c(=O)c1C#N [Compound 264]", "Δ"),
    ("N#Cc1c(-c2ccccc2)c(N=Nc2cc(C(=O)O)ccc2C(=O)O)c(O)n(CCCCCCNC(=O)c2cc(C(=O)O)c(C(=O)NCCCCCCn3c(O)c(N=Nc4cc(C(=O)O)ccc4C(=O)O)c(-c4ccccc4)c(C#N)c3=O)cc2C(=O)O)c1=O [Compound 287]", "◯"),
    ("Cc1c(N=Nc2cc(C(=O)O)ccc2C(=O)O)c(O)n(CCC(=O)O)c(=O)c1C#N [compound 78]", "◯"),
    ("N#Cc1c(C(F)(F)F)c(N=Nc2cc(C(=O)O)ccc2C(=O)O)c(O)n(CCNC(=O)c2cc(C(=O)O)c(C(=O)NCCn3c(O)c(N=Nc4cc(C(=O)O)ccc4C(=O)O)c(C(F)(F)F)c(C#N)c3=O)cc2C(=O)O)c1=O [Compound 291]", "◯"),
    ("Cc1c(N=Nc2cc(Cl)cc(C(=O)O)c2C(=O)O)c(O)[nH]c(=O)c1C#N [compound 3]", "◯"),
    ("Cc1c(N=Nc2cc(C(=O)[O-])ccc2C(=O)[O-])c(O)n(CCNc2nc(Cl)nc(NCCn3c(O)c(N=Nc4cc(C(=O)[O-])ccc4C(=O)[O-])c(C)c(C#N)c3=O)n2)c(=O)c1C#N.[K+].[K+].[K+].[K+] [potassium salt of compound No. 245]", "∘"),
    ("Cc1c(N=Nc2cc(S(=O)(=O)O)c(C(=O)O)cc2C(=O)O)c(O)[nH]c(=O)c1C#N [compound 7]", "◯"),
    ("Cc1c(N=Nc2cc(C(=O)O)ccc2C(=O)O)c(O)n(CCCCCCNc2nc(Cl)nc(NCCCCCCn3c(O)c(N=Nc4cc(C(=O)O)ccc4C(=O)O)c(C)c(C#N)c3=O)n2)c(=O)c1C#N [Compound No. 246]", "Δ"),
    ("Cc1c(N=Nc2c(C(=O)O)cccc2C(=O)O)c(O)[nH]c(=O)c1C#N [compound 16]", "◯"),
]
